# Tested on: NCI-H226 lung
# PROTOCOL TEXT: NCI-60 one-dose screen, 48 h (100 = growth as untreated, 0 = no growth, -100 = all killed)
# CONDITION DESCRIPTION: 10 µM unless noted
This is part of a sample that, as a whole, favours compounds with a hit. Of some 83,000 tested, about 20% had one in any assay.
// class assignment uses growth with these ranges: bottom: < 50%; middle: ≥ 50% and < 90%; top: ≥ 90%

Answered cases to consult:
INSERT INTO measurements (molecule, group_label) VALUES
  ('CC(=O)OCC1OC(OC2C(COC(C)=O)OC(OCCC[S-])C(OC(C)=O)C2OC(C)=O)C(OC(C)=O)C(OC(C)=O)C1OC(C)=O.[Au+].c1ccc(CN2[CH-]N(Cc3ccccc3)C(c3ccccc3)=C2c2ccccc2)cc1 (configuration not stated)', 'bottom'),
  ('Nc1cc(N)c(S(=O)(=O)O)cc1N=Nc1cc([N+](=O)[O-])ccc1O', 'top'),
  ('O=C(Nc1cc(Nc2ncccc2-c2ncnc3nc[nH]c23)ccc1F)c1cc(C(F)(F)F)cc(C(F)(F)F)c1', 'bottom'),
  ('C[C@H]1[C@H](C)CC[C@]2(C(=O)OCCCC[P+](c3ccccc3)(c3ccccc3)c3ccccc3)CC[C@]3(C)C(=CC[C@@H]4[C@@]5(C)CC[C@H](OC(=O)C(Cl)Cl)C(C)(C)[C@@H]5CC[C@]43C)[C@H]12', 'bottom'),
  ('C=C1C(=O)O[C@H]2[C@H]1CC/C(COC(=O)c1cc3ccccc3o1)=C\CC[C@@]1(C)O[C@@H]21', 'bottom'),
  ('COc1ccc(C2C(c3ccccc3)C(=O)N2c2cc(OC)c(OC)c(OC)c2)cc1I (configuration not stated)', 'middle'),
  ('COC(=O)c1nc(-c2ccccc2)oc1S(=O)(=O)n1nc(C)cc1N', 'top'),
  ('O=[N+]([O-])c1cccc(CN(Cc2cccc([N+](=O)[O-])c2O)c2ccccc2)c1O', 'middle'),
  ('O=C(NCc1ccccc1)c1ccc2c(c1)NC(=O)[C@@H]1CCCN21', 'top'),
  ('CC(=O)c1ccc(NC(=O)CSc2nnc(-c3cc(-c4ccc(C)cc4)nc4ccccc34)o2)cc1', 'middle');

Could you place "Cc1c(C(=O)Nc2nc3ccccc3[nH]2)cnn1-c1ccccn1" in its proper category? Many thanks.
top

Follow-up item: C1=CC2=CC=C3C=CC=C4C(c5nc6c7ccccc7c7ccccc7c6[nH]5)=CC(=C1)C2C34 (configuration not stated)
bottom

Follow-up item: "O=C(O)CCNC1CCCCC1"
top

Follow-up item: "O=C(Nc1nc2ccc(C(F)(F)F)cc2s1)c1cc(Cl)ccc1O"
bottom

Follow-up item: "Cc1cccc2nc3c(n12)C(=O)C(=O)c1ccccc1-3"
middle

Follow-up item: "Cc1cc(Nc2nc(SCc3ccc(C(=O)Nc4ccc(F)cc4N)cc3)nn3cccc23)n[nH]1"
middle

Follow-up item: OCCNc1nc(NCCO)nc(Nc2ccc(C3=NN(c4cc(Cl)cc(Cl)c4)C(c4ccc(Cl)cc4)C3)cc2)n1 (configuration not stated)
top
